B1: SNAP91 (parent)
chain: FSTDAFSSPPQGASPVPESSLTAD

- Variants of: B1
- ASSAY_INFO: protein stability index of a GFP-peptide fusion (GPS, HEK-293T) (PSI 1-6); higher = more stable;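 note: lentivirally expressed fusions sorted by FACS into six bins by GFP to DsRed ratio, PSI derived from sequencing read proportions per bin multiplied by bin number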
- RUN_CONDITIONS: c terminus: a fixed tail appended
We begin with a simple list: items and their reported protein stability index.

Use these answered entries as a reference point.
{"ENTRY_SEQUENCE": "FSTDAFSSPGQGASPVPESSLTAD [P10G]", "REPORTED_MEASUREMENT": 2.69}
{"ENTRY_SEQUENCE": "FSTDAFWSPPQGASPVPESSLTAD [S7W]", "REPORTED_MEASUREMENT": 3.15}
{"ENTRY_SEQUENCE": "CSTDAFSSPPQGASPVPESSLTAD [F1C]", "REPORTED_MEASUREMENT": 5.07}
{"ENTRY_SEQUENCE": "DSTDAFSSPPQGASPVPESSLTAD [F1D]", "REPORTED_MEASUREMENT": 5.72}
{"ENTRY_SEQUENCE": "FSTDAFSSPPTGASPVPESSLTAD [Q11T]", "REPORTED_MEASUREMENT": 3.75}
{"ENTRY_SEQUENCE": "FSTDAFSSPPQGQSPVPESSLTAD [A13Q]", "REPORTED_MEASUREMENT": 3.11}
{"ENTRY_SEQUENCE": "FSTDAFSSPPQGESPVPESSLTAD [A13E]", "REPORTED_MEASUREMENT": 3.22}
{"ENTRY_SEQUENCE": "FSTDAFSSPPQGASPVRESSLTAD [P17R]", "REPORTED_MEASUREMENT": 3.31}

Lookup result for FSTDAFSSPPQGASPVHESSLTAD [P17H] ; measured protein stability index: 3.85

Looking up FSTMAFSSPPQGASPVPESSLTAD [D4M] , I found its protein stability index recorded as 2.92

For record FSTDAFSSPPQGASPVPESVLTAD [S20V] the listed protein stability index is 2.77

Item: FFTDAFSSPPQGASPVPESSLTAD [S2F] | protein stability index: 3.96

FVTDAFSSPPQGASPVPESSLTAD [S2V] has a reported protein stability index of 3.15

Memo: FSTDAFSSPPQIASPVPESSLTAD [G12I] , reported protein stability index: 2.68

Entry FSTDEFSSPPQGASPVPESSLTAD [A5E] ; protein stability index = 4.8

Per the records, this variant ( FSTDAFSSPPQGASPVPESSLKAD [T22K] ) has protein stability index equal to 2.64

Short answer for FSTDAFSSPPQGASPVPESSLTAG [D24G] : protein stability index was 2.75

Value of measured protein stability index for the entry FSTDAFSSPVQGASPVPESSLTAD [P10V] : 2.73

protein stability index recorded for this variant, FSTDIFSSPPQGASPVPESSLTAD [A5I] , is 3.79

protein stability index reading for FSTVAFSSPPQGASPVPESSLTAD [D4V] : 3.28

Summary for this variant, FSTDAFSSPPQGASPVPESSLTGD [A23G] : protein stability index is 3.09

The recorded protein stability index for entry FSTDAFSSPPQGASPVPESSLTED [A23E] equals 3.35

# variant FSTDAFSSPPQGASPYPESSLTAD [V16Y] ; its protein stability index = 2.96

// sample FSTDAFSSPPQGASRVPESSLTAD [P15R] , its protein stability index was 2.97

The recorded protein stability index for entry FSTEAFSSPPQGASPVPESSLTAD [D4E] equals 4.2

Sure, the documented protein stability index for FSTIAFSSPPQGASPVPESSLTAD [D4I] is 3.45
